- System tested: recombinant human cGAS (aa147-522) (Homo sapiens)
- Construct: recombinant human cGAS (aa147-522); His6-SUMO (cleaved yes); made in house; host or cells: E. coli BL21/pLys
- Sequence (Q8N884 147-522): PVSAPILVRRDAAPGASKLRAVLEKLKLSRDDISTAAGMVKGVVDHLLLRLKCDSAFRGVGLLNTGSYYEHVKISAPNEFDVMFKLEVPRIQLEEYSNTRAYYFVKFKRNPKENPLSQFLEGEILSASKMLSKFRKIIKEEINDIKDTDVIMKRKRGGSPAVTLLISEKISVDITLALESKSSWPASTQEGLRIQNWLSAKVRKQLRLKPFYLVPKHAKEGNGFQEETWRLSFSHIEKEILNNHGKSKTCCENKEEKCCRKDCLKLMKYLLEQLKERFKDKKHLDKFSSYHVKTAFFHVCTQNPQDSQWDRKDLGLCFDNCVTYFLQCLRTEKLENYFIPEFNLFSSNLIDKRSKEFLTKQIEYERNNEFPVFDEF
- Assay details: In vitro inhibition assay of cGAS activity (ATP consumption, KinaseGlo Max)
- Assay type: biochemical
- Run parameters: Table 2, read-out: cGAS Inhibition Results IC50
pIC50: −log10 of the molar value.
Property name: pIC50

Compound	pIC50
O=C(O)C1CN(c2cc(-n3ccnc3)c3ccc(Cl)c(Cl)c3n2)CCN1C(=O)CO (centres unmarked) [I-83]	4.52 to 5.70
CN(CCC(=O)N1CCC[C@H]1C(=O)O)c1cc(-c2cn[nH]c2)c2ccc(Cl)c(Cl)c2n1 [I-389]	> 5.70
O=C(NO)[C@@H]1CCCN1c1cc(-n2ccnc2)c2ccc(Cl)c(Cl)c2n1 [I-449]	> 5.70
CC(=O)OCC(=O)NC1CCCN(c2cc(-n3ccnc3)c3ccc(Cl)cc3n2)C1 (centres unmarked) [I-395]	4.52 to 5.70
C[C@@]1(CO)CCCN1c1cc(-n2ccnc2)c2ccc(Cl)c(Cl)c2n1 [I-143]	> 5.70

Prompt: Consider the compound Clc1ccc2c(-c3cncnc3)cc(-c3ccccc3)nc2c1 [I-71] . State its measured pIC50.
Completion: < 4.52
